Collected IC50 values appear next to each entry.
# target-or-test-system: V600E full-length B-Raf (Homo sapiens, UniProt P15056, V600E)
# Construct: 1 μM FSBA-MEK and 20 nM V600E full-length B-Raf; made in house; host or cells: sf9 insect cells (baculovirus)
# Sequence (P15056 whole entry V600E): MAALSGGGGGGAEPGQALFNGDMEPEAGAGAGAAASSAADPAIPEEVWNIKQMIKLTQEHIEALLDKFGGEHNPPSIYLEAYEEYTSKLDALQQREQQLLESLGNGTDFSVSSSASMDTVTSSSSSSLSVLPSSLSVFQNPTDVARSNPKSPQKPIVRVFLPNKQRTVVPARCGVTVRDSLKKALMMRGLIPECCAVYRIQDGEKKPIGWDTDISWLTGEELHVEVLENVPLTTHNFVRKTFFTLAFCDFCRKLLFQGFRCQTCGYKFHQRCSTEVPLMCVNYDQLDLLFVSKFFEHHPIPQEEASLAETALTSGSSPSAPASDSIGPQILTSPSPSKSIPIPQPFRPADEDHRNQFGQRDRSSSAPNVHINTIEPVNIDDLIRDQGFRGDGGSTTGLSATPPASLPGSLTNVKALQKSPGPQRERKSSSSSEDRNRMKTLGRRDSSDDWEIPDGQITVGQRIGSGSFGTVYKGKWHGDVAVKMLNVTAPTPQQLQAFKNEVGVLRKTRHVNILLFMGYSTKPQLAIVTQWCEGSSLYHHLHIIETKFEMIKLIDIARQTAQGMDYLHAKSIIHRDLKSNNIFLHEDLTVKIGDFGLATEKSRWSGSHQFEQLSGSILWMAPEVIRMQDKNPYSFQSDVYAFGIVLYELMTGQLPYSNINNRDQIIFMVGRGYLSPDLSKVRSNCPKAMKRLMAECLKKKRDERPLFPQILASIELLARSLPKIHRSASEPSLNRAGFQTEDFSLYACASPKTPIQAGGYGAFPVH
# protocol: B-Raf IC50 Assay (B-RAF V600E inhibition assay, Example A)
# Type: biochemical
# conditions: incorporation of radio labeled phosphate from [γ-33P]ATP into FSBA-modified wild-type MEK; 4 μM ATP, 20 nM V600E full-length B-Raf, 60-minute incubation, 22° C.; read-out: BRAF V600E IC50
// return numeric value only (unit: nM, not printed)

[
  {
    "smiles-entry": "CCCS(=O)(=O)Nc1ccc(F)c(NC(=O)c2csc3c(NOC)ncnc23)c1Cl",
    "IC50, nM": 9.2
  },
  {
    "smiles-entry": "CCCS(=O)(=O)Nc1cc(F)cc(NC(=O)c2csc3c(N)ncnc23)c1Cl",
    "IC50, nM": 1.4
  },
  {
    "smiles-entry": "CCCS(=O)(=O)Nc1cc(F)c(F)c(NC(=O)c2csc3c(NC4CC4)ncnc23)c1F",
    "IC50, nM": 1.2
  },
  {
    "smiles-entry": "CCCS(=O)(=O)Nc1ccc(F)c(NC(=O)c2snc3c(NC4CC4)ncnc23)c1F",
    "IC50, nM": 194
  },
  {
    "smiles-entry": "Nc1ncnc2c(C(=O)Nc3c(F)ccc(NS(=O)(=O)CCCF)c3Cl)csc12",
    "IC50, nM": 0.2
  }
]

Any idea what IC50 was measured for CCCS(=O)(=O)Nc1ccc(Cl)c(NC(=O)c2csc3c(NCCF)ncnc23)c1Cl ? 0.5

Please give the result for CCCS(=O)(=O)Nc1ccc(F)c(NC(=O)c2csc3c(NCCF)ncnc23)c1F too. 15.7

Please give the result for O=C(Nc1c(F)ccc(NS(=O)(=O)CCCF)c1F)c1csc2cncnc12 too. 40.3

----------
# target-or-test-system: V600E full-length B-Raf (Homo sapiens, UniProt P15056, V600E)
# Construct: 1 μM FSBA-MEK and 20 nM V600E full-length B-Raf; made in house; host or cells: sf9 insect cells (baculovirus)
# protocol: B-Raf IC50 Assay (B-RAF V600E inhibition assay, Example A)
# Format: biochemical
# conditions: incorporation of radio labeled phosphate from [γ-33P]ATP into FSBA-modified wild-type MEK; 4 μM ATP, 20 nM V600E full-length B-Raf, 60-minute incubation, 22° C.; read-out: BRAF V600E IC50
IC50 under 7 nM gets Fulfilled, anything at or over 7 nM gets Not fulfilled.

# example entries with known answers
[
  {
    "smiles-entry": "Nc1ncnc2c(C(=O)Nc3c(F)ccc(NS(=O)(=O)CC4CC4)c3F)csc12",
    "class-label": "Not fulfilled"
  },
  {
    "smiles-entry": "Nc1ncnc2c(C(=O)Nc3c(F)c(F)cc(NS(=O)(=O)CCCF)c3F)csc12",
    "class-label": "Fulfilled"
  },
  {
    "smiles-entry": "O=C(Nc1c(Cl)ccc(NS(=O)(=O)CCCF)c1F)c1nsc2cncnc12",
    "class-label": "Not fulfilled"
  },
  {
    "smiles-entry": "CCCS(=O)(=O)Nc1ccc(F)c(NC(=O)c2csc3c(N)ncnc23)c1",
    "class-label": "Not fulfilled"
  },
  {
    "smiles-entry": "CCCS(=O)(=O)Nc1ccc(F)c(NC(=O)c2csc3c(NCC)ncnc23)c1Cl",
    "class-label": "Not fulfilled"
  },
  {
    "smiles-entry": "CCCS(=O)(=O)Nc1cc(F)c(F)c(NC(=O)c2csc3c(NC4CCOCC4)ncnc23)c1F",
    "class-label": "Not fulfilled"
  },
  {
    "smiles-entry": "Nc1ncnc2c(C(=O)Nc3c(F)ccc(NS(=O)(=O)CCCF)c3F)nsc12",
    "class-label": "Fulfilled"
  }
]

We now examine a further compound.
Input Nc1ncnc2c(C(=O)Nc3c(Cl)ccc(NS(=O)(=O)CCCF)c3F)csc12 ; condition: IC50 strictly below 7 nM. Does it hold? Fulfilled
